- System Tested: Melanocortin receptor 5 (Homo sapiens)
- Sequence (P33032 whole entry, the tested form may be a part): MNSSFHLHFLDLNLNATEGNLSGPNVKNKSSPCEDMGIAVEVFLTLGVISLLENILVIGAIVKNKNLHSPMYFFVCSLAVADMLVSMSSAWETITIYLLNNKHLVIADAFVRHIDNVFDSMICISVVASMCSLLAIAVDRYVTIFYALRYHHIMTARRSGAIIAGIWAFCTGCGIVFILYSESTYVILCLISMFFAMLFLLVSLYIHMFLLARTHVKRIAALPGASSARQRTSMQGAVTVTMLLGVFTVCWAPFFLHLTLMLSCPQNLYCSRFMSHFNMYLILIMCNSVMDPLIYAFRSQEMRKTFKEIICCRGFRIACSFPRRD
- Assay Info: Agonist activity at EYFP-fused human MC5R expressed in HEK293 cells after 16 to 20 hrs by CRE-driven reporter assay
pEC50: −log10 of the molar value.
Metric: pEC50

Please review the following examples before continuing.
Smi	pEC50
C[C@H](NC(=O)[C@@H]1Cc2cn(nn2)C[C@H](NC(=O)[C@@H](N)CCCCN)C(=O)N[C@@H](Cc2cnc[nH]2)C(=O)N[C@H](Cc2ccccc2)C(=O)N[C@@H](CCCNC(=N)N)C(=O)N[C@@H](Cc2c[nH]c3ccccc23)C(=O)N1)C(=O)O	6.20
CSCC[C@H](NC(=O)[C@@H]1Cc2cn(nn2)C[C@H](NC(=O)[C@@H](N)CCCCN)C(=O)N[C@@H](Cc2cnc[nH]2)C(=O)N[C@H](Cc2ccccc2)C(=O)N[C@@H](CCCNC(=N)N)C(=O)N[C@@H](Cc2c[nH]c3ccccc23)C(=O)N1)C(=O)O	6.52
CSCC[C@H](NC(=O)[C@@H]1Cc2cn(nn2)C[C@H](NC(=O)[C@H](C)N)C(=O)N[C@@H](Cc2cnc[nH]2)C(=O)N[C@H](Cc2ccccc2)C(=O)N[C@@H](CCCNC(=N)N)C(=O)N[C@@H](Cc2c[nH]c3ccccc23)C(=O)N1)C(=O)O	6.86
CC(=O)N[C@@H](CCCNC(=N)N)C(=O)N[C@H]1CSSC[C@@H](C(N)=O)NC(=O)[C@H](Cc2c[nH]c3ccccc23)NC(=O)[C@H](CCCNC(=N)N)NC(=O)[C@@H](Cc2ccccc2)NC(=O)[C@H](Cc2c[nH]cn2)NC(=O)[C@@H](C)NC1=O	6.96
CSCC[C@H](NC(=O)[C@@H]1Cc2cn(nn2)C[C@H](NC(=O)[C@@H](N)CCCNC(=N)N)C(=O)N[C@@H](Cc2cnc[nH]2)C(=O)N[C@H](Cc2ccccc2)C(=O)N[C@@H](CCCNC(=N)N)C(=O)N[C@@H](Cc2c[nH]c3ccccc23)C(=O)N1)C(=O)O	6.12

I. CSCC[C@H](NC(=O)[C@@H]1Cc2cn(nn2)[C@@H](CCCNC(=N)N)C(=O)N[C@@H](Cc2cnc[nH]2)C(=O)N[C@H](Cc2ccccc2)C(=O)N[C@@H](CCCNC(=N)N)C(=O)N[C@@H](Cc2c[nH]c3ccccc23)C(=O)N1)C(=O)O
II. CSCC[C@H](NC(=O)[C@@H]1Cc2cn(nn2)C[C@H](NC(=O)[C@@H](N)CCCCN)C(=O)N[C@@H](C)C(=O)N[C@H](Cc2ccccc2)C(=O)N[C@@H](CCCNC(=N)N)C(=O)N[C@@H](Cc2c[nH]c3ccccc23)C(=O)N1)C(=O)O
Input line: Sort I and II by pEC50 descending and give the first. Return value: the label identifying the chosen record.
Output line: II

###

- System Tested: Melanocortin receptor 4 (Homo sapiens, UniProt P32245)
- Sequence (P32245 whole entry, the tested form may be a part): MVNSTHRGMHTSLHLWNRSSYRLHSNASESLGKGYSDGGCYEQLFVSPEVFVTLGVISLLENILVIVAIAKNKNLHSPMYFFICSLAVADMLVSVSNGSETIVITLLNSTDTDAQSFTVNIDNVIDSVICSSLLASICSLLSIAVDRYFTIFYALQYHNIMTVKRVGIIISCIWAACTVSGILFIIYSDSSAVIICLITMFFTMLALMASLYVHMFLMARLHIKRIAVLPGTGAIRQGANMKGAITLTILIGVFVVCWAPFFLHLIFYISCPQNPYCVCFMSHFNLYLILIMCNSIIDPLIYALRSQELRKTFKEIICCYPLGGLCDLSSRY
- Assay Info: Agonist activity at EYFP-fused human MC4R expressed in HEK293 cells assessed as increase in cAMP accumulation after 30 mins by luminescent enzymatic complementation based assay
- Type: functional, cell-based
Metric: EC50 (nM)

Please review the following examples before continuing.
Smi	Readout Value
CSCC[C@H](NC(=O)[C@@H]1Cc2cn(nn2)C[C@H](NC(=O)[C@@H](N)CCCCN)C(=O)N[C@@H](Cc2cnc[nH]2)C(=O)N[C@H](Cc2ccccc2)C(=O)N[C@@H](CCCCN)C(=O)N[C@@H](Cc2c[nH]c3ccccc23)C(=O)N1)C(=O)O	124
CSCC[C@H](NC(=O)[C@@H]1Cc2cn(nn2)C[C@H](NC(=O)[C@@H](N)CCCCN)C(=O)N[C@@H](Cc2cnc[nH]2)C(=O)N[C@H](Cc2ccccc2)C(=O)N[C@@H](CCCNC(=N)N)C(=O)N[C@@H](Cc2c[nH]c3ccccc23)C(=O)N1)C(=O)O	9.2
CSCC[C@H](NC(=O)[C@@H]1Cc2cn(nn2)C[C@H](NC(=O)[C@@H](N)CCCCN)C(=O)N[C@@H](Cc2cnc[nH]2)C(=O)N[C@H](Cc2ccccc2)C(=O)N[C@@H](CCCNC(=N)N)C(=O)N[C@@H](Cc2csc3ccccc23)C(=O)N1)C(=O)O	63.7
CSCC[C@H](NC(=O)[C@@H]1Cc2cn(nn2)[C@@H](CCCNC(=N)N)C(=O)N[C@@H](Cc2cnc[nH]2)C(=O)N[C@H](Cc2ccccc2)C(=O)N[C@@H](CCCNC(=N)N)C(=O)N[C@@H](Cc2c[nH]c3ccccc23)C(=O)N1)C(=O)O	9.6
C[C@H](NC(=O)[C@@H]1Cc2cn(nn2)C[C@H](NC(=O)[C@@H](N)CCCCN)C(=O)N[C@@H](Cc2cnc[nH]2)C(=O)N[C@H](Cc2ccccc2)C(=O)N[C@@H](CCCNC(=N)N)C(=O)N[C@@H](Cc2c[nH]c3ccccc23)C(=O)N1)C(=O)O	17.9
CSCC[C@H](NC(=O)[C@@H]1Cc2cn(nn2)C[C@H](NC(=O)[C@@H](N)CCCCN)C(=O)N[C@@H](Cc2cnc[nH]2)C(=O)N[C@H](Cc2ccccc2)C(=O)N[C@@H](CCCN)C(=O)N[C@@H](Cc2c[nH]c3ccccc23)C(=O)N1)C(=O)O	730

1. CSCC[C@H](NC(=O)[C@@H]1Cc2cn(nn2)C[C@H](NC(=O)[C@@H](N)CCCNC(=N)N)C(=O)N[C@@H](Cc2cnc[nH]2)C(=O)N[C@H](Cc2ccccc2)C(=O)N[C@@H](CCCNC(=N)N)C(=O)N[C@@H](Cc2c[nH]c3ccccc23)C(=O)N1)C(=O)O
2. CSCC[C@H](NC(=O)[C@@H]1Cc2cn(nn2)C[C@H](NC(=O)[C@@H](N)CCCCN)C(=O)N[C@@H](C)C(=O)N[C@H](Cc2ccccc2)C(=O)N[C@@H](CCCNC(=N)N)C(=O)N[C@@H](Cc2c[nH]c3ccccc23)C(=O)N1)C(=O)O
Input line: Please let me know which one, 1 or 2 , has a lower measured EC50 value. Return value: the label identifying the chosen record.
Output line: 2
(2: 28.8 nM, 1: 43.3 nM)

P. CSCC[C@H](NC(=O)[C@@H]1Cc2cn(nn2)C[C@H](NC(=O)[C@@H](N)CCCCN)C(=O)N[C@@H](Cc2cnc[nH]2)C(=O)N[C@H](Cc2ccccc2)C(=O)N[C@@H](C)C(=O)N[C@@H](Cc2c[nH]c3ccccc23)C(=O)N1)C(=O)O
Q. CSCC[C@H](NC(=O)[C@@H]1Cc2cn(nn2)C[C@H](NC(=O)[C@H](C)N)C(=O)N[C@@H](Cc2cnc[nH]2)C(=O)N[C@H](Cc2ccccc2)C(=O)N[C@@H](CCCNC(=N)N)C(=O)N[C@@H](Cc2c[nH]c3ccccc23)C(=O)N1)C(=O)O
Input line: Please let me know which one, P or Q , has a lower measured EC50 value. Return value: the label identifying the chosen record.
Output line: Q
